tested on: A. non-baumannii isolates (n = 87); experiment: MIC, broth microdilution (EUCAST), A. non-baumannii isolates; assay type: cell-based, Acinetobacter spp. (non-baumannii); conditions: Acinetobacter pittii, isolate NO-Ab145, Acinetobacter pittii; in combinations ETZ fixed at 8 mg/L; read-out: MIC
Examples of molecules with documented MIC follow.

- Molecule: "C[n+]1ccn(C[C@@]2(C)[C@H](C(=O)[O-])N3C(=O)C[C@H]3S2(=O)=O)n1"
  MIC (µg/mL): 2
- Molecule: "C[C@@H](O)[C@H]1C(=O)N2C(C(=O)O)=C(SCCN=CN)C[C@H]12"
  MIC (µg/mL): 0.12
- Molecule: "CC1(C)[C@H](C(=O)O)N2C(=O)C[C@H]2S1(=O)=O"
  MIC (µg/mL): 1
- Molecule: "CO/N=C(\\C(=O)N[C@@H]1C(=O)N2C(C(=O)[O-])=C(C[N+]3(C)CCCC3)CS[C@H]12)c1csc(N)n1 [cefepime]"
  MIC (µg/mL): 2
